Below, each entry is listed with its recorded Retention_time.
procedureText: Retention time of compound by HPLC analysis
Format: physicochemical
Your answer should be a plain number; it is taken to be in min.

[[record]]
molecule = "Cc1ccc2cccc(OS(=O)(=O)CCCN)c2n1"
recordednumber = 6.5

[[record]]
molecule = "Cc1ccc2cccc(OS(=O)(=O)CCCNC(=O)[C@@H](N)CC(C)C)c2n1"
recordednumber = 21

[[record]]
molecule = "Cc1ccc2cccc(O)c2n1 [8-HYDROXY QUINALDINE]"
recordednumber = 4.6


Turning to the following molecule.
Respond only with Retention_time recorded for Cc1ccc2cccc(OS(=O)(=O)CCCN=[N+]=[N-])c2n1 17.5

---

procedureText: Metabolic stability in human serum assessed as compound decomposed at 5 mM after 24 hrs by HPLC analysis
Assay type: ADME
testParameters: read-out: Drug metabolism
reportedProperty: metabolised at 24 h, 5000 µM (%)
Your answer should be a plain number; it is taken to be in %.

Respond only with metabolised at 24 h, 5000 µM recorded for Cc1ccc2cccc(OS(=O)(=O)CCCNC(=O)[C@@H](N)CC(C)C)c2n1 35

---

Below, each entry is listed with its recorded pKa.
procedureText: Dissociation constant, pKa of the compound
Format: physicochemical
Write no unit; give the number alone.

Below, each entry is followed by its recorded pKa result.
[[record]]
smilesrepresentation = "Cc1ccc2cccc(OS(=O)(=O)CCCNC(=O)[C@@H](N)CC(C)C)c2n1"
recordednumber = 10.9

[[record]]
smilesrepresentation = "CC(C)C[C@H](N)C(=O)NCCCS(=O)(=O)Oc1ccc(C(F)(F)F)cc1"
recordednumber = 8.9


Respond only with pKa recorded for CC(C)C[C@H](N)C(=O)NCCCS(=O)(=O)Oc1ccc(Cl)cc1 9.6

Respond only with pKa recorded for CC(C)C[C@H](N)C(=O)NCCCS(=O)(=O)Oc1ccc(S(N)(=O)=O)cc1 8.3
